system: ECa-109 cell line; assay: Antiproliferative activity against human ECA109 cells after 48 hrs by MTT assay; type: functional, cell-based; details: ECa-109, 48 h
Reported IC50 values for a set of compounds
Please respond with the number in µM and leave the unit unwritten.

INPUT: Using the record for COc1cc(OC)cc(C2SCC(=O)Nc3cc4c(cc32)OCO4)c1 (centres undefined) , report its IC50.
OUTPUT: 30.3

INPUT: Another compound to look at: Cc1ccccc1C1SCC(=O)Nc2cc3c(cc21)OCO3 (centres undefined)
OUTPUT: 55.5

----------
system: EC9706; assay: Antiproliferative activity against human EC9706 cells after 48 hrs by MTT assay; format: functional, cell-based; conditions: EC9706, 48 h
Quick list: pIC50 per entry.
pIC50 here: minus log base 10 of the concentration, concentration in moles per litre.

1) Cc1ccccc1C1SCC(=O)Nc2cc3c(cc21)OCO3 (centres undefined)
4.47

INPUT: Value wanted: pIC50 (EC9706) of entry O=C1CSC(c2ccc([N+](=O)[O-])cc2)c2cc3c(cc2N1)OCO3 (centres undefined)
OUTPUT: 4.60

INPUT: Next up: COc1ccc(C2SCC(=O)Nc3cc4c(cc32)OCO4)cc1 (centres undefined)
OUTPUT: 4.79

INPUT: And then COc1cc(OC)cc(C2SCC(=O)Nc3cc4c(cc32)OCO4)c1 (centres undefined) , what is it?
OUTPUT: 4.93

INPUT: For Cc1ccc(C2SCC(=O)Nc3cc4c(cc32)OCO4)cc1 (centres undefined) then?
OUTPUT: 4.77

INPUT: Param item: COc1ccc(C2SCC(=O)Nc3cc4c(cc32)OCO4)cc1Br (centres undefined)
OUTPUT: 5.08

INPUT: Now consider CC1SC(c2ccc([N+](=O)[O-])cc2)c2cc3c(cc2NC1=O)OCO3 (centres undefined) .
OUTPUT: 4.46

INPUT: Now this one: O=C1CSC(c2cccs2)c2cc3c(cc2N1)OCO3 (centres undefined)
OUTPUT: 4.16

INPUT: // same read-out, input: COc1cc(C2SCC(=O)Nc3cc4c(cc32)OCO4)cc(OC)c1OC (centres undefined)
OUTPUT: 4.15

INPUT: Now this one: `O=c1[nH]cc(F)c(=O)[nH]1`
OUTPUT: 4.63

INPUT: O=C1CSC(c2ccco2)c2cc3c(cc2N1)OCO3 (centres undefined) , same question.
OUTPUT: 4.52

----------
test system: ECa-109 cell line; test: Antiproliferative activity against human ECA109 cells after 48 hrs by MTT assay; type: functional, cell-based; conditions: ECa-109, 48 h
metric name: IC50 (µM)
Give the value in µM but do not write µM after it.

INPUT: # input molecule: COc1cc(C2SCC(=O)Nc3cc4c(cc32)OCO4)cc(OC)c1OC (configuration not stated) ; wanted: its IC50
OUTPUT: 130

INPUT: Next molecule: O=C1CSC(c2cccs2)c2cc3c(cc2N1)OCO3 (configuration not stated)
OUTPUT: 95.5

INPUT: Another: `O=c1[nH]cc(F)c(=O)[nH]1`
OUTPUT: 30.2

----------
The entries below come with measured pIC50 values attached.
system: EC9706; assay: Antiproliferative activity against human EC9706 cells after 48 hrs by MTT assay; assay type: functional, cell-based; settings: EC9706, 48 h
pIC50 (log units): -log10 of the concentration in mol/L.

# annotated cases, reported pIC50 shown
1. O=C1CSC(c2ccc(F)cc2)c2cc3c(cc2N1)OCO3 (stereo not drawn)
3.98
2. O=C1CSC(c2ccccc2)c2cc3c(cc2N1)OCO3 (stereo not drawn)
4.36
3. O=C1CSC(c2ccc(Cl)cc2)c2cc3c(cc2N1)OCO3 (stereo not drawn)
4.46
4. COc1cccc(C2SCC(=O)Nc3cc4c(cc32)OCO4)c1 (stereo not drawn)
4.26

Moving on to the next compound.
INPUT: Which measured pIC50 value corresponds to CC1SC(c2cccc([N+](=O)[O-])c2)c2cc3c(cc2NC1=O)OCO3 (stereo not drawn) ?
OUTPUT: 4.05
